pKi for assorted compounds
Molecular target: STAT6 protein (Homo sapiens, UniProt P42226)
Sequence (P42226 whole entry): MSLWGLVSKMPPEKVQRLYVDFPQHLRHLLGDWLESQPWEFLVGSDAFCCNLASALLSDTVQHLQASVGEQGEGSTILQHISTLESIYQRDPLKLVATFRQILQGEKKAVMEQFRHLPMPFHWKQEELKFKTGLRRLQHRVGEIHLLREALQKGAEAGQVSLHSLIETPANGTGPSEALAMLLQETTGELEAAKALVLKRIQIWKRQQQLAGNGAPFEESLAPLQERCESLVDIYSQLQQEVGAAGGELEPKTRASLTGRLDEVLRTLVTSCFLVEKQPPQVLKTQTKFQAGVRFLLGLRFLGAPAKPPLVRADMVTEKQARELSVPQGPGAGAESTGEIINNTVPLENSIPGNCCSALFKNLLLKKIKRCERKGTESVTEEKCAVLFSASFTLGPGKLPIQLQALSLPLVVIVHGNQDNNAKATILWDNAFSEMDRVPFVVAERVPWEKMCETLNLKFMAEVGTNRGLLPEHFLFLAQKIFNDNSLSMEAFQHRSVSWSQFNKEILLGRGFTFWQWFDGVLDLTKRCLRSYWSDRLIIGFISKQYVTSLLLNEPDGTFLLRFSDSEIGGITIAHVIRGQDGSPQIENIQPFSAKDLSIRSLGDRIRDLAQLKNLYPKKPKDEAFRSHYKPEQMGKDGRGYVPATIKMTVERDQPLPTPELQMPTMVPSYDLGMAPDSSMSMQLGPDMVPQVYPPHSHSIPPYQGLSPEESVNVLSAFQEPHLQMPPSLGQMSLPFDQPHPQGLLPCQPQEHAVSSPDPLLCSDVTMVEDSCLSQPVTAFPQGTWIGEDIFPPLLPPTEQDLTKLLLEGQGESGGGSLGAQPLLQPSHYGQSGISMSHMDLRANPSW
Test: Fluorescence polarization (FP) binding assay, STAT6
Conditions: FP competition, 5 nM fluorescein-labeled tracer, 200 nM protein, PBS pH7.4; read-out: Binding STAT6
pKi: −log10 of the molar value.

I would be grateful if you could share the reported pKi for CC(C)(C)[C@H](NC(=O)c1cc2cc(C(F)(F)P(=O)(O)O)ccc2s1)C(=O)N1CCC[C@H]1C(=O)N1CC[C@@H]2CN(C(=O)c3ccc(F)cc3)C[C@@H]21 [Compound 86] . < 5.00

Likewise for CC(C)C(=O)N1CC[C@H]2CC[C@@H](C(=O)N3CCc4ccccc4C3)N2C(=O)[C@@H](NC(=O)c2cc3cc(C(F)(F)P(=O)(O)O)ccc3[nH]2)C1 [Compound 364] ? < 5.00

Likewise for CCCN(C(=O)[C@@H]1C[C@H](OCC(=O)OCC)CN1C(=O)[C@@H](NC(=O)c1cc2cc(C(F)(F)P(=O)(O)O)ccc2s1)C(C)(C)C)c1ccc(Br)cc1 [Compound 55] ? 6.00 to 7.00

###

Target: STAT6 protein (Homo sapiens, UniProt P42226)
Test: Fluorescence polarization (FP) binding assay, STAT6
Details: FP competition, 5 nM fluorescein-labeled tracer, 200 nM protein, PBS pH7.4; read-out: Binding STAT6
Ki for assorted molecules

Molecule	Result
CC(C)(C)[C@H](NC(=O)c1cc2cc(C(F)(F)P(=O)(O)O)ccc2[nH]1)C(=O)N1CCC[C@H]1C(=O)N[C@H]1CCCc2ccccc21 [Compound 11]	1000 to 10000 nM
O=C(N[C@@H](Cc1cccs1)C(=O)N1CCC[C@H]1C(=O)N1CCO[C@H](c2ccccc2)C1)c1cc2cc(C(F)(F)P(=O)(O)O)ccc2s1 [Compound 287]	100 to 1000 nM
Cc1cc(C2CN(C(=O)[C@@H]3Cc4ccccc4CN3C(=O)[C@@H](NC(=O)c3cc4cc(C(F)(F)P(=O)(O)O)ccc4s3)C(C)(C)C)CCO2)ccc1F (some centres unmarked) [Compound 241]	1000 to 10000 nM
CC(C)(C)[C@H](NC(=O)c1cc2cc(C(F)(F)P(=O)(O)O)ccc2s1)C(=O)N1Cc2ccccc2C[C@H]1C(=O)N1CCS(=O)(=O)[C@@H](c2ccccc2)C1 [Compound 225]	100 to 1000 nM
CC(C)(C)[C@H](NC(=O)c1cc2cc(C(F)(F)P(=O)(O)O)ccc2[nH]1)C(=O)N1CCC[C@H]1C(=O)N[C@@H]1CCCc2ccccc21 [Compound 10]	1000 to 10000 nM

Lab note: next molecule to report on.
Find Ki (STAT6 protein (Homo sapiens, UniProt P42226)) for the entry CC(=O)N1CC[C@H]2CC[C@@H](C(=O)N3CCc4ccccc4C3)N2C(=O)[C@@H](NC(=O)c2ccc3ccc(C(F)(F)P(=O)(O)O)cc3c2)C1 [Compound 334] > 10000 nM

###

Molecular target: STAT6 protein (Homo sapiens, UniProt P42226)
Assay: Fluorescence polarization (FP) binding assay, STAT6
Settings: FP competition, 5 nM fluorescein-labeled tracer, 200 nM protein, PBS pH7.4; read-out: Binding STAT6
pKi: −log10 of the molar value.
pKi for assorted compounds

Below, 3 compounds whose answers are already recorded.
Compound	Result
CNC(=O)CCN(C(=O)[C@@H]1CCCN1C(=O)[C@@H](NC(=O)c1cc2cc(C(F)(F)P(=O)(O)O)ccc2s1)C(C)(C)C)c1ccc(Br)cc1	6.00 to 7.00
CC(C)(C)[C@H](NC(=O)c1cc2cc(C(F)(F)P(=O)(O)O)ccc2s1)C(=O)N1CCC[C@H]1C(=O)N1C[C@H]2CCN[C@H]2C1	< 5.00
CC(=O)N1CC[C@H]2CC[C@@H](C(=O)N3CCC(C)(C(C)C)C3)N2C(=O)[C@@H](NC(=O)c2cc3cc(C(F)(F)P(=O)(O)O)ccc3s2)C1 (stereo partly drawn)	< 5.00

I would be grateful if you could share the reported pKi for CC(C)(C)[C@H](NC(=O)c1cc2cc(C(F)(F)P(=O)(O)O)ccc2[nH]1)C(=O)N1CCC[C@H]1C(=O)NC(c1ccccc1)c1ccccc1 . 5.00 to 6.00

Likewise for CC(=O)N1CC[C@H]2CC[C@@H](C(=O)N3CCOC(c4ccccc4C)C3)N2C(=O)[C@@H](NC(=O)c2cc3cc(C(F)(F)P(=O)(O)O)ccc3s2)C1 (stereo partly drawn) ? 5.00 to 6.00

Likewise for CC(C)(C)[C@H](NC(=O)c1cc2cc(C(F)(F)P(=O)(O)O)ccc2s1)C(=O)N1CCCCC[C@H]1C(=O)N1Cc2ccccc2C1 ? 5.00 to 6.00
